These entries and their values trace back to PubChem BioAssay AID588493.

Tested target: 26S proteasome non-ATPase regulatory subunit 14 (Homo sapiens)
Protocol: inhibition of 26S proteasome subunit Rpn11 – biochemical, fluorescence polarization, uHTS, primary screen (AID 588493)
Experimental context: human 26S proteasome, Ub4-pepOG fluorescence polarization; at 20 µM; hits give high values; 20S core pre-blocked with epoxomicin
Out of some 360,000 compounds screened, about 2,100 (0.58%) were called active. The list comes from a sample in which actives are over-represented; it also holds close analogues and randomly drawn compounds.
Readout name: inhibition

| Smiles representation | inhibition |
| --- | --- |
| C=CC1=C(C(=O)O)N2C(=O)[C@@H](NC(=O)/C(=N\OCC(=O)O)c3csc(N)n3)[C@H]2SC1 | -0.3% (inactive) |
| O=C(/C=C/c1cccs1)c1cc(Cl)ccc1OC(=O)N1CCOCC1 | 1.7% (inactive) |
| CN(C)C(=O)c1cccc(-c2cnc3sc(NCc4ccc5c(c4)OCO5)nn23)c1 | -1.9% (inactive) |
| C=CC1=C(C(=O)O)N2C(=O)[C@@H](NC(=O)/C(=N/OCC(=O)O)c3csc(N)n3)[C@H]2SC1 | 45.1% (active) |

Turning now to a further compound:
(Q) Look up inhibition: C=CCn1c(SCC(=O)NCc2ccccc2)nnc1-c1cc(Br)ccc1O
(A) 37.3% (active)

###

Tested target: 26S proteasome non-ATPase regulatory subunit 14 (Homo sapiens) (UniProt O00487)
Sequence (O00487 whole entry, looked up): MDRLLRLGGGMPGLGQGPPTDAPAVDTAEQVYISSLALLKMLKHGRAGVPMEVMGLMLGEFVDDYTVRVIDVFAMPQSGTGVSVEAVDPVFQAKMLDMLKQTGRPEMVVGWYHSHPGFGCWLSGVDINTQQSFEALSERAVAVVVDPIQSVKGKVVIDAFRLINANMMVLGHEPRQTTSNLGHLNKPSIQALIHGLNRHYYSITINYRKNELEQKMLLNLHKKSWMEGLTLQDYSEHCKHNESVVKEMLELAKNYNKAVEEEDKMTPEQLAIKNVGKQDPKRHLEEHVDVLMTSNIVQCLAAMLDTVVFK
Protocol: inhibition of 26S proteasome subunit Rpn11 – biochemical, fluorescence polarization, uHTS, primary screen (AID 588493)
Experimental context: human 26S proteasome, Ub4-pepOG fluorescence polarization; at 20 µM; hits give high values; 20S core pre-blocked with epoxomicin
Out of some 360,000 compounds screened, about 2,100 (0.58%) were called active. The list comes from a sample in which actives are over-represented; it also holds close analogues and randomly drawn compounds.
Readout name: inhibition (%)
Answers are plain numbers, in %.

Recorded results for 2 compounds are shown here.
| Compound | Tested target | inhibition (%) |
| --- | --- | --- |
| COc1cccc(NC(=O)C(C)Oc2ccccc2)c1 (stereo not given) | 26S proteasome non-ATPase regulatory subunit 14 (Homo sapiens) (UniProt O00487) | 112 |
| CCCOc1ccc(Cn2c(O)cc(=O)[nH]c2=O)cc1 | 26S proteasome non-ATPase regulatory subunit 14 (Homo sapiens) (UniProt O00487) | 65.3 |

Look at each compound and report its inhibition.
1. COc1ccc(Cn2c(O)c(/C=C3/C=CC=N3)c(=O)[nH]c2=O)cc1
2. CCOC(=O)N1CCC(NC(=O)C(NS(=O)(=O)c2ccc3c(c2)CCN3C(=O)CC)C(C)C)CC1 (stereo not given)
3. CC(C)c1c(C(=O)N/N=C/c2ccccc2C(=O)O)nnn1-c1nonc1N
4. CCC(=O)N1CCc2cc(S(=O)(=O)NC(C(=O)N3CCc4ccccc4C3)C(C)C)ccc21 (stereo not given)
5. COc1cccc(NC(=O)CC(c2ccc(OC(C)C)cc2)c2ccccc2OC)c1 (stereo not given)
6. CCCC1C(c2ccccc2)C(C#N)(C#N)C2(C#N)CC1(N)NC2=O (stereo not given)
7. COc1cc(=O)[nH]c(=O)n1C(=O)Cc1ccccc1

(A)
14.5
46.5
-1.4
1.1
-1.6
3
2.2

(Q) Consider the compound COc1ccccc1-c1n[nH]c2c1[C@H](C)CC[C@H]2C(C)C and give its measured inhibition.
(A) 0.4

###

Tested target: 26S proteasome non-ATPase regulatory subunit 14 (Homo sapiens)
Protocol: inhibition of 26S proteasome subunit Rpn11 – biochemical, fluorescence polarization, uHTS, primary screen (AID 588493)
Experimental context: human 26S proteasome, Ub4-pepOG fluorescence polarization; at 20 µM; hits give high values; 20S core pre-blocked with epoxomicin
Screen size: about 360,000 compounds; about 2,100 (0.58%) were called active. This is one part of a sample in which actives are shown more often than they occur.
Please provide measured inhibition for the entries that follow.
Give bare numbers, in %.

| Compound | Quantity unit | inhibition |
| --- | --- | --- |
| COc1cccc(/C=C(/CC(=O)Nc2ccc(N3CCOCC3)cc2)c2nc3ccccc3s2)c1 | % | 41.7 |
| N#Cc1c(-c2cccs2)nc(SCC(=O)c2ccc(Br)cc2)[nH]c1=O | % | 68.3 |
| Cc1csc2nc(O)c(C(=O)NCCN3CCOCC3)c(=O)n12 | % | -3.8 |

Provide inhibition values for the following items, in order.
1. Cc1ccc(OCCCC(=O)Nc2ccc(N3CCOCC3)cc2)cc1
2. Nc1nnc(SCCN2C(=O)c3ccccc3S2(=O)=O)s1
3. NC(N)=N/N=C/c1ccc(OCc2ccc(Cl)cc2Cl)cc1
4. Cc1ccc2[nH]c(C(=O)O)c(NC(=O)c3ccccc3[N+](=O)[O-])c2c1
5. CC(=O)CSc1nc(CCc2ccccc2)c(C#N)c(=O)[nH]1
6. O=C1c2ccccc2S(=O)(=O)c2cc(N3CCN(c4ccccn4)CC3)ccc21

(A)
1: 1.7; 2: -2.1; 3: 51.4; 4: 3.4; 5: -4.6; 6: 40.2

Hi, could you look up inhibition for each item in my list?
1. Cc1ccc2c(c1)N(CC(=O)N1CCOCC1)C(=O)CO2
2. Cc1cc2cc(CNC(=O)c3cccs3)ccc2[nH]1
3. Cc1ccc(N=Cc2c(O)cc(C)oc2=O)c(C)c1
4. CCCn1nc(C(=O)NNC(=O)CSCC(=O)Nc2cc(C)on2)c2ccccc2c1=O
5. C=CCn1c(=S)[nH]c2scc(-c3ccco3)c2c1=O

(A)
[-3.1, 3.4, 40.7, 2.6, 48.1]

// for each compound in input: emit inhibition
1. O=C(CN1C(=O)CSc2ncccc21)N1CCOCC1
2. CC1CCC2(CC1)NC(=O)N(CC(=O)NCc1ccco1)C2=O (centres undefined)
3. Cc1cc[n+](-c2[nH]c(=O)sc2/C=N/NC(=O)c2ccccc2[O-])cc1C

(A)
-4.6
7.9
-29.4

###

Tested target: 26S proteasome non-ATPase regulatory subunit 14 (Homo sapiens) (UniProt O00487)
Protocol: inhibition of 26S proteasome subunit Rpn11 – biochemical, fluorescence polarization, uHTS, primary screen (AID 588493)
Experimental context: human 26S proteasome, Ub4-pepOG fluorescence polarization; at 20 µM; 20S core pre-blocked with epoxomicin
Out of some 360,000 compounds screened, about 2,100 (0.58%) were called active.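 How the source made its calls: active means inhibition at 20 µM, scaled to each plate's controls, above about 33% (limit read from the data); inactive means the rest.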 What follows is part of a selection rich in actives, with near analogues and random picks from the rest.
Mark one answer only. Choices: yes (1) = active, no (0) = inactive

(Q) Please state the recorded outcome for this compound: CC(C)(C)c1ccc(C(=O)NCc2ccco2)cc1
(A) no (0)

(Q) Again, but for CCS(=O)(=O)c1ccc(-c2cccc(NC(=O)c3ccc(Br)o3)c2)nn1
(A) no (0)

(Q) What about this compound? Cc1ccc(S(=O)(=O)N2CCCC2C(=O)OCc2nc3sc(C)c(C)c3c(=O)[nH]2)cc1 (configuration not stated)
(A) no (0)

(Q) Here is the next compound: Cc1cccc(Nc2ccccc2C(=O)NCc2ccco2)c1C
(A) no (0)

(Q) And then COc1ccc(NC(=O)Cn2c(-c3ccc(OC)cc3)cn(-c3ccc(C)cc3)c2=O)cc1 , what is it?
(A) yes (1)

(Q) Query Cc1ccc(NC(=O)Cn2c(C)csc2=O)cc1 next
(A) no (0)

###

Tested target: 26S proteasome non-ATPase regulatory subunit 14 (Homo sapiens)
Protocol: inhibition of 26S proteasome subunit Rpn11 – biochemical, fluorescence polarization, uHTS, primary screen (AID 588493)
Experimental context: human 26S proteasome, Ub4-pepOG fluorescence polarization; at 20 µM; 20S core pre-blocked with epoxomicin
The whole screen tested about 360,000 compounds, of which about 2,100 (0.58%) were called active.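 How the source made its calls: active means inhibition at 20 µM, scaled to each plate's controls, above about 33% (limit read from the data); inactive means the rest.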 The sample as a whole holds a higher share of actives than the screen did.
Could you please pick one outcome from this set? Y (active), N (inactive)

| Compound | Assigned label |
| --- | --- |
| COc1ccc(-c2nc3n(c2Br)CCC3)cc1 | N |

(Q) // return assay outcome for CC(=O)Oc1cc2c(C(=O)NCCN3CCOCC3)c(C)oc2c2ccccc12
(A) N

(Q) Now the compound CCC(C)N1CC(=O)N2Cc3[nH]c4ccccc4c3C[C@H]2C1=O (stereo partly drawn)
(A) N

(Q) Same question for COc1ccc(NC(=S)N2CCC(NC(=O)c3cccc(F)c3)CC2)cc1 please.
(A) N

(Q) How about this compound: CC1C(=O)N(Cc2cn(Cc3ccco3)nn2)CCS(=O)(=O)N1Cc1ccc(-c2cccc(CO)c2)cc1 (stereo not drawn)
(A) N

(Q) Also, COc1cccc(C2CC(c3ccccc3)=NN2S(=O)(=O)c2ccccc2)c1OC (stereo not drawn) please.
(A) N

(Q) CC(C)c1ccc(C=NNc2ccc([N+](=O)[O-])cn2)cc1 ?
(A) N

(Q) Queued: C=CCc1cc(S(=O)(=O)c2ccc(O)c(CC=C)c2)ccc1O
(A) N

(Q) // query: CC(C)Cn1c(=O)c2ccccc2n2c(CCC(=O)NCc3ccccn3)nnc12
(A) N
